assay: qHTS assay to identify small molecule antagonists of the thyroid receptor (TR) signaling pathway - cell viability counter screen (AID 743064); conditions: GH3.TRE-Luc viability, CellTiter-Fluor, 24 h; series mostly up to 70.3 µM; further: nearly all actives have a fitted effect of over 50% in size
Inconclusive results are not listed. Calls of active or inactive are those of the source. The call rests on the fitted dose curve; in most records, active means well fitted cell-killing curve with a large enough effect in the repeat runs; inconclusive means weak or mixed curves, or effect the other way; inactive means no such curve, though single readings can be large or run the other way.
Labels: class 1 = active, class 0 = inactive

INSERT INTO assay_data (compound, category_label) VALUES
  ('CN(C[C@@H](CC[N+]12CCC(C3CCCCC3)(CC1)CC2)c1ccc(Cl)c(Cl)c1)C(=O)c1cc(C(F)(F)F)cc(C(F)(F)F)c1', 'class 1'),
  ('CN[C@H](CC(C)C)C(=O)N[C@H]1C(=O)N[C@@H](CC(N)=O)C(=O)N[C@H]2C(=O)N[C@H]3C(=O)N[C@H](C(=O)N[C@@H](C(=O)O)c4cc(O)cc(O)c4-c4cc3ccc4O)[C@H](O)c3ccc(c(Cl)c3)Oc3cc2cc(c3O[C@@H]2O[C@H](CO)[C@@H](O)[C@H](O)[C@H]2O[C@H]2C[C@](C)(N)C(O)[C@H](C)O2)Oc2ccc(cc2Cl)[C@H]1O (some centres undefined)', 'class 0'),
  ('NC(N)=NCCCCN=C(N)N', 'class 0'),
  ('CCN1CCCC1CNC(=O)c1cc(S(=O)(=O)CC)ccc1OC (centres undefined)', 'class 0'),
  ('O=C1C2CC3CC1CC(O)(C3)C2', 'class 0'),
  ('NCCCC[C@H](NC(=O)[C@@H]1CCCN1C(=O)[C@@H]1CSSC[C@H](N)C(=O)N[C@@H](Cc2ccc(O)cc2)C(=O)N[C@@H](Cc2ccccc2)C(=O)N[C@@H](CCC(N)=O)C(=O)N[C@@H](CC(N)=O)C(=O)N1)C(=O)NCC(N)=O', 'class 0'),
  ('CCN(CC)C(=O)c1cccnc1', 'class 0'),
  ('Clc1nc(C(Cl)(Cl)Cl)c(Cl)c(Cl)c1Cl', 'class 1'),
  ('NCCO/C=C/[C@H](N)C(=O)O', 'class 0'),
  ('CC(C)CCC[C@@H](C)[C@H]1CC[C@H]2[C@@H]3CC=C4C[C@@H](O)CC[C@]4(C)[C@H]3CC[C@]12C', 'class 0'),
  ('O=C(N[C@H](CO)[C@H](O)c1ccc([N+](=O)[O-])cc1)C(Cl)Cl', 'class 0'),
  ('COc1c(Br)cc(Br)c(C)c1Br', 'class 0'),
  ('CC(=O)O[C@H]1C[C@@H]2CC[C@@H]3[C@H](CC[C@@]4(C)[C@H]3C[C@H]([N+]3(C)CCCCC3)[C@@H]4OC(C)=O)[C@@]2(C)C[C@@H]1[N+]1(C)CCCCC1', 'class 0'),
  ('C[C@H](NCCc1ccc(O)cc1)[C@H](O)c1ccc(O)cc1', 'class 0'),
  ('CS(=O)(=O)c1ccc([C@@H](O)[C@@H](COC(=O)CN)NC(=O)C(Cl)Cl)cc1', 'class 0'),
  ('CCCCCN=C(N)N/N=C/c1c[nH]c2ccc(OC)cc12', 'class 0'),
  ('CC(C)Cc1ccc([C@H](C)C(=O)O)cc1', 'class 0'),
  ('C1CCc2nnnn2CC1', 'class 0'),
  ('CC1CCCC(C)N1NC(=O)c1ccc(Cl)c(S(N)(=O)=O)c1 (centres undefined)', 'class 0');
